assay_system: Dickkopf-related protein 1 (Homo sapiens)
experiment_notes: DKK1 binders on small-molecule microarrays, primary screen, biochemical, small-molecule microarray, 635 nm fluorescence scan (AID 1106);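 note: score merges emission near 667 nm with signal to noise over three replicate slides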
measurement_setup: DKK1 binding, higher = more signal
measure_name: composite z-score
Give bare numbers.

Observe how each entry below is paired with its result.
Exercise: # composite z-score lookup, item "C=C(/C(=C/C[C@@H](OC(=O)c1ccncc1)c1ccccc1OCCO)c1cc(C(=O)OC)ccc1OC)C(C)C"
Key: 0.328

Exercise: Quick one: "C=CCN1C(=O)[C@@]2(O[C@@H](CCO)[C@H]([Si](C)(C)c3ccc(OC)cc3)[C@H]2C)c2cc(N3C(=O)c4ccccc4Oc4ccccc43)ccc21"
Key: 0.0911

Exercise: Quick one: "O=C1O[C@@H](c2ccccc2)[C@@H](c2ccccc2)N2[C@@H](c3ccccc3OCCO)[C@]3(C(=O)Nc4ccc(C#CCCO)cc43)[C@@H](C(=O)N3CCN(c4ncccn4)CC3)[C@H]12"
Key: 0.464

Exercise: Quick one: COc1ccc(C(O)C2C=CC3C(=O)N(c4ccccc4)C(=O)C3N2Nc2ccc(C#N)cc2)c2ccccc12 (configuration not stated)
Key: 0.138

Exercise: Quick one: "COCCCNC(=O)[C@@H]1c2ccccc2C(=O)N(Cc2ccccc2C(F)(F)F)[C@H]1c1ccc(CO)cc1"
Key: -0.595

Exercise: Quick one: "CN(C)C(=O)[C@]1(CCC(=O)OC(C)(C)C)N=C(c2ccc(OCCCO)cc2)O[C@@H]1c1ccccc1"
Key: -0.136

Continue with the next molecule.
Exercise: # composite z-score lookup, item "O=C1c2ccccc2[C@@]2(Cc3ccccc3N(C3CC3)C2=O)[C@H](c2ccc(CO)cc2)N1C1CCCCC1"
Key: -0.526

* * *

Exercise: for every item that follows, state its recorded z-score.
experiment_notes: HepG2 liver cancer cell viability effects, profiling panel, resazurin fluorescence, 24 h, PK04 Diversity Set (AID 1172); note: test concentration not given here
measurement_setup: higher = more signal
Answers are plain numbers.

Observe how each entry below is paired with its result.
Exercise: # z-score lookup, item "COC(=O)C(CC#Cc1ccc2c(c1)[C@]1(C(=O)N2)[C@H](C(=O)O)[C@H]2C(=O)O[C@H](c3ccccc3)[C@H](c3ccccc3)N2[C@@H]1c1ccccc1OCCO)C(=O)OC"
Key: 0.289

Exercise: Quick one: "COCCOC(=O)N1C(=O)[C@@]2(c3cc(C#Cc4ccc(OC)cc4)ccc31)[C@H](C(=O)NC[C@H](O)c1ccccc1)[C@H]1C(=O)O[C@H](c3ccccc3)[C@H](c3ccccc3)N1[C@@H]2c1ccc(O)cc1"
Key: -0.857

Continue with the next compound.
Exercise: # z-score lookup, item "C=CCNC(=O)[C@@H]1[C@H]2C(=O)O[C@H](c3ccccc3)[C@H](c3ccccc3)N2[C@H](c2ccccc2OCCO)[C@@]12C(=O)N(C(=O)OCCOC)c1ccc(C#CC3=CCCCC3)cc12"
Key: 0.402

* * *

assay_system: Epidermal growth factor receptor (Homo sapiens)
experiment_notes: EGFR binders on small-molecule microarrays, primary screen, biochemical, small-molecule microarray, 635 nm fluorescence (AID 1104);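 note: score merges 667 nm emission intensity with spot signal to noise over triplicate slides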
measurement_setup: EGFR binding, higher = more signal
Kindly return Y if reported composite z-score is no lower than 0.2; return N if it is lower.

Exercise: Please check the record "C=C(COC)/C(=C/C[C@@H](OC(=O)c1ccncc1)c1cccc(OCCO)c1)c1cnc2ccccc2c1" and state if its composite z-score is at or above 0.2.
Key: Y

Exercise: Quick one: "COc1c(C)cc(-c2cc3c(c(-c4ccccc4)n2)[Si](C(C)C)(C(C)C)OC3)cc1C"
Key: N

Exercise: Quick one: "O=C(CS)NCCCCCCNC(=O)[C@@H]1C[C@@H]2C(=O)N3CCC[C@H]3C(=O)N2[C@@H]1c1cccc(OCCO)c1"
Key: Y

Exercise: Quick one: O=C1NC(=O)C2C1C=CC(C(O)c1ccc3c(c1)OCO3)N2Nc1ccccn1 (stereo not drawn)
Key: Y

Exercise: Quick one: "C=CC[C@]1(C(=O)N(C)C)N=C(c2ccc(OCCCO)cc2)O[C@H]1c1ccccc1N=[N+]=[N-]"
Key: N

Exercise: Quick one: "Cc1ccc(S[C@]2(C(=O)NCCN3CCOCC3)CC(=O)N(Cc3ccccc3C(F)(F)F)[C@@H]2c2ccc(CO)cc2I)cc1"
Key: N

Exercise: Quick one: C[C@]12C(=O)N(CCCCCCO)[C@@H]3C(=O)N(c4ccc(Cl)cc4)CC=CC31O[C@@H]1/C=C\CCCOC(=O)C12 (stereo partly drawn)
Key: N

***
Exercise: Please check the record "O=C1c2ccccc2[C@@]2(Cc3ccccc3N(C3CC3)C2=O)[C@H](c2ccc(CO)cc2)N1C1CCCCC1" and state if its composite z-score is at or above 0.2.
Key: N

* * *

Exercise: for every item that follows, state its recorded composite z-score.
Tested on: wheat germ agglutinin (Triticum aestivum), Alexa647-labelled
experiment_notes: wheat germ agglutinin binders on compound microarrays, profiling panel, artefact control for SMM control-protein annotation, biochemical, small-molecule microarray, 635/667 nm fluorescence (AID 1140);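 note: score merges 667 nm feature emission with signal to noise over triplicate slides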
measurement_setup: WGA-A647 binding, 635 nm fluorescence, higher = more signal
Give bare numbers.

Observe how each entry below is paired with its result.
Exercise: # composite z-score lookup, item "O=C1O[C@@H](c2ccccc2)[C@@H](c2ccccc2)N2[C@@H](c3ccccc3OCCO)[C@]3(C(=O)Nc4ccc(C#CCCO)cc43)[C@@H](C(=O)N3CCN(c4ncccn4)CC3)[C@H]12"
Key: 0.65

Exercise: Quick one: "CC(C)NC(=O)[C@@]1(C)c2ccccc2C(=O)N(C(C)C)[C@H]1c1ccc(CO)cc1"
Key: -0.465

Exercise: Quick one: "COCCOC(=O)N1C(=O)[C@@]2(c3cc(C#Cc4ccc(OC)cc4)ccc31)[C@H](C(=O)NC[C@H](O)c1ccccc1)[C@H]1C(=O)O[C@H](c3ccccc3)[C@H](c3ccccc3)N1[C@@H]2c1ccc(O)cc1"
Key: 0.666

Exercise: Quick one: COc1ccc(C(O)C2C=CC3C(=O)N(c4ccccc4)C(=O)C3N2Nc2ccc(C#N)cc2)c2ccccc12 (stereo unspecified)
Key: 1.04

Exercise: Quick one: "COc1cc2c(cc1OC)CN(C(=O)[C@H]1[C@@H]3C(=O)O[C@@H](c4ccccc4)[C@@H](c4ccccc4)N3[C@@H](c3ccc(OCCO)cc3)[C@]13C(=O)Nc1ccc(C#CC4(O)CCCCCC4)cc13)CC2"
Key: 1.18

Continue with the next molecule.
Exercise: # composite z-score lookup, item "[N-]=[N+]=NCc1ccccc1[C@H]1OC(c2ccc(OCCCO)cc2)=N[C@@]1(CCS(=O)(=O)c1ccccc1)C(N)=O"
Key: 1.16

* * *

experiment_notes: fission yeast growth modulation, primary screen, strain 972, OD600, 24 h, no modulator (AID 1090);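 note: basal condition with compound alone and no growth modifier present; test concentration not given here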
measurement_setup: S. pombe 972 growth, higher = more signal, called active from +8 up or from −8 down
Kindly return Y if reported z-score is no lower than -0.6; return N if it is lower.

Exercise: Please check the record "CC(C)(C)OC(=O)CC[C@]1(C(=O)O)N=C(c2ccc(OCCCO)cc2)O[C@H]1c1ccccc1" and state if its z-score is at or above -0.6.
Key: Y

***
Exercise: Please check the record "Cc1ccc(S[C@]2(C(=O)NCC(C)C)CC(=O)N(Cc3ccccc3Cl)[C@@H]2c2ccc(CO)cc2I)cc1" and state if its z-score is at or above -0.6.
Key: N

Exercise: Quick one: "CC(C)CN1C(=O)[C@@]2(c3ccc([N+](=O)[O-])cc3)CC(=O)N(CC34CC5CC(CC(C5)C3)C4)[C@@H]2c2ccc(CO)cc21"
Key: Y

* * *

experiment_notes: anti-His antibody binders, primary screen, artefact control for SMM control protein annotation, biochemical, small-molecule microarray, 635 nm fluorescence (AID 1128);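 note: score merges feature fluorescence with signal-to-noise for each printed compound spot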
measurement_setup: anti-His Alexa647 antibody binding, higher = more signal
measure_name: composite z-score
Give bare numbers.

Okay, here is my list. What is composite z-score for each of these?
1. COC(=O)[C@@]1(Cc2ccc(OC)cc2)[C@H]2c3cc(C(=O)N(C)C)n(Cc4nc5ccccc5[nH]4)c3C[C@H]2CN1C(=O)c1ccccc1
2. CC1CC/C=C\[C@H]2OC34C=CCN(c5ccc6ccccc6c5)C(=O)[C@H]3N(C(CO)C(C)C)C(=O)[C@@H]4C2C(=O)O1 (some centres not stated)
3. C[C@H]1C2=C3C(CC[C@H]4C(OCc5ccc(F)cc5C(F)(F)F)OC[C@](C)([C@@H]34)N(C(=O)OC(C)(C)C)C2)C(CO)C1CO (some centres not stated)

Key:
1.39
1.22
0.0803

Okay, here is my list. What is composite z-score for each of these?
1. CC(C)C(O)C1C=CC2C(=O)N(C)C(=O)C2N1N(c1ccccc1)c1ccccc1 (configuration not stated)
2. CC(C)(C)OC(=O)CC[C@]1(C(=O)NCCN2CCOCC2)N=C(c2ccc(OCCCO)cc2)O[C@H]1c1ccccc1
3. CC(C)(C)OC(=O)CC[C@]1(C(=O)NCCN2CCOCC2)N=C(c2ccc(OCCCO)cc2)O[C@H]1c1ccccc1N=[N+]=[N-]
4. O=C1NCC(=O)N2[C@@H]1C[C@@H](C(=O)O)[C@H]2c1ccc(O)cc1

Key:
1: 0.545; 2: 2.21; 3: 2.11; 4: 3.15
